# measurement_notes: protein stability index of a GFP-peptide fusion (GPS, HEK-293T) (PSI 1-6); higher = more stable;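 note: 24-mer peptide tiles fused after GFP, lentivirally expressed, FACS-sorted into six equal bins by GFP/DsRed ratio, decoded by Illumina sequencing, PSI is the read-weighted mean bin number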
# recorded_conditions: treatment: MLN4924 1 uM, 8 h; c terminus: a fixed tail appended
Answer NOT MET if protein stability index is under 3, and MET if it is 3 or more.

Prompt: Please tell me: is the sequence KDKEYAEIIRKQVSATKAEAEKDG [UBE2R2] at or over 3 in terms of protein stability index?
Completion: MET

Prompt: Please tell me: is the sequence YADFGPLNLAMVYRYCCKLNKKLK [CDC14A] at or over 3 in terms of protein stability index?
Completion: NOT MET

Prompt: Please tell me: is the sequence SSPMVQVDEKGEKVRPSHKRCIVI [LARP4] at or over 3 in terms of protein stability index?
Completion: NOT MET

Prompt: Please tell me: is the sequence ENFKGLAIPYLEHIIHVWEETGSR [VPS39] at or over 3 in terms of protein stability index?
Completion: NOT MET

Prompt: Please tell me: is the sequence STPVCSQKVVVTTPLHRDKTPLHQ [MYBL2] at or over 3 in terms of protein stability index?
Completion: MET

Prompt: Please tell me: is the sequence CGSQLSSTKGSRSNLSTRDASILT [NETO1] at or over 3 in terms of protein stability index?
Completion: NOT MET
